From: ChEMBL document CHEMBL2146480

experiment: Half life in rat at 1.19 mg/kg, iv and 10.9 mg/kg, po
Assay type: ADME, organism-based
conditionParameters: in vivo
reportedEndpoint: half-life
Record the result as a number with its unit.

# half-life lookup, item `Cc1cc(C#N)ccc1-c1ccnc(NCc2n[nH]c(-c3ccccc3)c2Cl)c1`
186 min

---

studySystem: Voltage-gated inwardly rectifying potassium channel KCNH2 (Homo sapiens, UniProt Q12809)
Sequence (Q12809 whole entry): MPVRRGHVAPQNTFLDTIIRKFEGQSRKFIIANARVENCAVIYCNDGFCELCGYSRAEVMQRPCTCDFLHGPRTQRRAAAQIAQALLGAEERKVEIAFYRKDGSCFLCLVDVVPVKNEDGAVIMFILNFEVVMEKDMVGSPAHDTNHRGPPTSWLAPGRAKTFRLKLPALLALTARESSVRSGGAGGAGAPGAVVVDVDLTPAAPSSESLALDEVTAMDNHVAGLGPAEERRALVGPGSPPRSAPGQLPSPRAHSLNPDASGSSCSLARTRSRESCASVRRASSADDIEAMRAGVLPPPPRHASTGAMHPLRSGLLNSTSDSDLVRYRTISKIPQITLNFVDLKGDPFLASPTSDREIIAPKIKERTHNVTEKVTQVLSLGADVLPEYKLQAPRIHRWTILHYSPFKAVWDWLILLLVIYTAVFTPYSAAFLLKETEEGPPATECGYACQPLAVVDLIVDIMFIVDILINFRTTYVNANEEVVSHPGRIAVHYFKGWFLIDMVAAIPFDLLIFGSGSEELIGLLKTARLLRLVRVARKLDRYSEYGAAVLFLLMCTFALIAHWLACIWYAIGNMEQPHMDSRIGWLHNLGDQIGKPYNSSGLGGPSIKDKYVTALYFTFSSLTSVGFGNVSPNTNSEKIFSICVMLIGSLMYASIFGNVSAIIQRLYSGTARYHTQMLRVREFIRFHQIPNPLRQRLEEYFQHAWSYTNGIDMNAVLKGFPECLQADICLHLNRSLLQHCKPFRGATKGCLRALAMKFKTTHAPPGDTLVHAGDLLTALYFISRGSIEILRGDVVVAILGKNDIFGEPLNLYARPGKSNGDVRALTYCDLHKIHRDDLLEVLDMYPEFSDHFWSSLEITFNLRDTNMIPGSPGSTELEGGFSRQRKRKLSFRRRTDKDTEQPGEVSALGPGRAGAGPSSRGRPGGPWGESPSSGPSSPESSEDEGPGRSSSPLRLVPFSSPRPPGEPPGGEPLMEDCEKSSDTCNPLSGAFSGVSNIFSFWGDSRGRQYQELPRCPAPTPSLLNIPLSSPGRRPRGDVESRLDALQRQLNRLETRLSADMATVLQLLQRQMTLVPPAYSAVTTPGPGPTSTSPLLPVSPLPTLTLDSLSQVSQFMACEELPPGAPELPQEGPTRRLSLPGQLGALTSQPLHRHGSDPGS
experiment: Inhibition of recombinant human ERG channel IKr expressed in CHO cells by patch clamp assay
reportedEndpoint: IC50 (nM)
Number only, in nM; omit the unit.

Requested read-out: IC50. Entry: `Cc1cc(C#N)ccc1-c1ccnc(NCc2cc(-c3ccccn3)[nH]n2)c1`
1100
